Provenance of the data: patent US8263754B2

Assay: Critical micelle concentration (CMC) by dye solubilization (Orange OT or DPH)
Format: physicochemical
Details: determined by DPH (diphenylhexatriene) or Orange OT
endpointLabel: CMC (%)
Output spec: scalar in %, unitless text.

For CC(CC(=O)NC(CO[C@@H]1O[C@H](CO)[C@@H](O)[C@H](O)[C@H]1O)CO[C@@H]1O[C@H](CO)[C@@H](O)[C@H](O)[C@H]1O)(C1CCCCC1)C1CCCCC1 [TPA 47] the molecule record lists CMC (%) as 0.3

Given item O=C(NCCO[C@H]1OC(CO)[C@H](O)C(O)[C@H]1O)C12CC3CC(CC(C3)C1)C2 (stereo partly shown) [TPA 41] , the value recorded as its CMC (%) is 6.9

The molecule listed as CCCCCCCCCCCCC(=O)NC(CO[C@@H]1O[C@H](CO)[C@@H](O)[C@H](O)[C@H]1O)(CO[C@@H]1O[C@H](CO)[C@@H](O)[C@H](O)[C@H]1O)CO[C@@H]1O[C@H](CO)[C@@H](O)[C@H](O)[C@H]1O [MPA3] shows CMC (%) equal to 0.35

CMC (%) for CCCCCCCCCCC(=O)NC(CO[C@@H]1O[C@H](CO)[C@@H](O)[C@H](O)[C@H]1O)CO[C@@H]1O[C@H](CO)[C@@H](O)[C@H](O)[C@H]1O [C10-MPA 2] is 0.47

----------
For each record, write down the corresponding CMC (%).
Experiment: Critical micelle concentration (CMC) by dye solubilization (Orange OT or DPH)
Format: physicochemical
Conditions: determined by DPH (diphenylhexatriene) or Orange OT
Number in %, nothing else.

Sure, the documented CMC (%) for CCCCC(CCCC)(CC(=O)NC(CO[C@@H]1O[C@H](CO)[C@@H](O)[C@H](O)[C@H]1O)(CO[C@@H]1O[C@H](CO)[C@@H](O)[C@H](O)[C@H]1O)CO[C@@H]1O[C@H](CO)[C@@H](O)[C@H](O)[C@H]1O)c1ccc(C(C)(C)C)cc1 is 0.31

The compound listed as CCCCC(CCCC)(CC(=O)NC(COC1OC(CO)C(O)C(O)C1O)COC1OC(CO)C(O)C(O)C1O)C1CCCC1 (stereo not drawn) has a reported CMC (%) of 0.15

CMC (%) for O=C(CC1(C2CCCCC2)CCCCCCC1)NC(CO[C@@H]1O[C@H](CO)[C@@H](O)[C@H](O)[C@H]1O)CO[C@@H]1O[C@H](CO)[C@@H](O)[C@H](O)[C@H]1O is 0.29

----------
Test: Critical micelle concentration (CMC) by dye solubilization (Orange OT or DPH)
Assay type: physicochemical
Conditions: aqueous solubilization of Orange OT
Source text: Aqueous solubilization of Orange OT was used to determine critical micelle concentrations (CMC). […] Facile self-association of these amphiphiles under these conditions may be hindered by the hydrophilicity and/or steric bulk of the triglucoside and dimaltoside headgroups. The Critical Micelle Concentrations (CMCs) of compounds of the invention can be determined by standard techniques known to those of skill in the art. […]
endpointLabel: critical micelle concentration (CMC) (mM)
Express the result in mM but write the number alone.

Noted for CCCCC(CCCC)(CC(=O)NC(CO[C@H]1OC(CO)[C@H](O)C(O)[C@H]1O)CO[C@H]1OC(CO)[C@H](O)C(O)[C@H]1O)c1ccccc1 (stereo partly shown) [TPA2] : its critical micelle concentration (CMC) reads 3.6

get_value(item= CCCCC(CCCC)(CC(=O)NCCC[N+](C)(C)[O-])c1ccccc1 [TPA0, reference compound] , readout=critical micelle concentration (CMC)) returns 5.5

Looking up CCCCCCCCCCCCC(=O)NC(CO[C@@H]1O[C@H](CO)[C@@H](O)[C@H](O)[C@H]1O)CO[C@@H]1O[C@H](CO)[C@@H](O)[C@H](O)[C@H]1O [C12-MPA2] , I see its critical micelle concentration (CMC) listed as 2.4

For this compound ( CCCCC(CCCC)(CC(=O)NC(CO[C@H]1OC(CO)[C@H](O)C(O)C1O)CO[C@H]1OC(CO)[C@H](O)C(O)C1O)C1CCCCC1 (stereo partly shown) [TPA21] ), measured critical micelle concentration (CMC) is 1.8

Just so you know, measured critical micelle concentration (CMC) for CCCCC(CCCC)(CC(=O)NCCO[C@@H]1O[C@H](CO)[C@@H](O[C@H]2O[C@H](CO)[C@@H](O)[C@H](O)[C@H]2O)[C@H](O)[C@H]1O)c1ccccc1 [TPA4] came out at 4.0

critical micelle concentration (CMC) in this record for CCCCCCCCCCCCC(=O)NC(CO[C@@H]1O[C@H](CO)[C@@H](O[C@H]2O[C@H](CO)[C@@H](O)[C@H](O)[C@H]2O)[C@H](O)[C@H]1O)CO[C@@H]1O[C@H](CO)[C@@H](O[C@H]2O[C@H](CO)[C@@H](O)[C@H](O)[C@H]2O)[C@H](O)[C@H]1O [MPA5] : 1.7

get_value(item= CCCCCCCCCCCCC(=O)NC(CO[C@@H]1O[C@H](CO)[C@@H](O)[C@H](O)[C@H]1O)(CO[C@@H]1O[C@H](CO)[C@@H](O)[C@H](O)[C@H]1O)CO[C@@H]1O[C@H](CO)[C@@H](O)[C@H](O)[C@H]1O [MPA3] , readout=critical micelle concentration (CMC)) returns 4.4
